# Tested on: MCF7 breast
# Run Description: NCI-60 one-dose screen, 48 h (100 = growth as untreated, 0 = no growth, -100 = all killed)
# Assay Setup: 10 µM unless noted
About 83,000 compounds went through this panel and 20% of them were active in at least one assay; those are over-represented in the sample as a whole.
Metric Name: growth (%)
One number for each entry, in %.

Past entries and their recorded results:
Compound: COc1cccc(-c2nnc(N)o2)c1
Observed: 101
//
Compound: COc1ccc(-c2cn(-c3ccccc3)c(-c3ccccc3)n2)cc1OC
Observed: 19.1
//
Compound: COc1cc(-c2cc(C(=O)Nc3nc4ccccc4s3)nc3cc(-c4ccccc4)nn23)cc(OC)c1OC
Observed: 72.9
//
Compound: Cc1cc(C)n2nc(SCC(=O)Nc3sc4c(c3C(N)=O)CCC4)nc2n1
Observed: 107
//
Compound: Cn1cnc([N+](=O)[O-])c1S(=O)(=O)Oc1ccc(Cl)cc1
Observed: 63.7

Dear colleague, could you please provide growth for the compounds listed below?
1. O=C1/C(=C/c2ccc([N+](=O)[O-])o2)Oc2ccc(Br)cc21
2. COc1cccc(C2C(C#N)=C(N)Oc3cc(OC)ccc32)c1 (stereo not given)
3. COc1ccc(-c2nc3sccn3c2-c2ccnc(S(C)(=O)=O)n2)cc1

[16.7, 17.1, 46.2]

Dear colleague, could you please provide growth for the compounds listed below?
1. CN(C)c1cccc2c(S(=O)(=O)N[C@H]3CC[C@H]4[C@@H]5CCc6cc(O)ccc6[C@H]5CC[C@]34C)cccc12
2. COc1ccc(C(=O)/C=C/c2c(Cl)nc3c(c(C)nn3-c3ccccc3)c2-c2ccc(Br)cc2)cc1

12.9
96.7

Origin of the recorded values: PubChem BioAssay (NCI)
